Quick reference for DC50 among some molecules
- assayed system: Protein cereblon/Estrogen receptor (Homo sapiens, UniProt P03372+Q96SW2)
- Sequence (P03372 whole entry): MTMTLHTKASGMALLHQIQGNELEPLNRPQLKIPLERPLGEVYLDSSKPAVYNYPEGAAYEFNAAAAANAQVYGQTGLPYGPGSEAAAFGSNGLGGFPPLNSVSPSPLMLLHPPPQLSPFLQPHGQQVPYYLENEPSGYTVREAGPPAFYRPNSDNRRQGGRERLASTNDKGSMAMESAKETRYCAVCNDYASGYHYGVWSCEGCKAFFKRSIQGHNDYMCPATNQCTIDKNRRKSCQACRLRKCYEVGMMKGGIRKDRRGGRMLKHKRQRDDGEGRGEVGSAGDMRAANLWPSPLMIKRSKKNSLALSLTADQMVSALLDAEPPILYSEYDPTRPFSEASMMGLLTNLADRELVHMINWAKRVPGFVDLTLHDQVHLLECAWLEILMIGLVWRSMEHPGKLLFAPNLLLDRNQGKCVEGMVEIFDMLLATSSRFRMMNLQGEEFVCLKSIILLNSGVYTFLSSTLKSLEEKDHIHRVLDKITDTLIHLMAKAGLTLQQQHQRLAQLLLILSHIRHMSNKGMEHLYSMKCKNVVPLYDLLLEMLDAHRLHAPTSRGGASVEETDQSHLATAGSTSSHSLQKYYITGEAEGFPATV
- Sequence (Q96SW2 whole entry): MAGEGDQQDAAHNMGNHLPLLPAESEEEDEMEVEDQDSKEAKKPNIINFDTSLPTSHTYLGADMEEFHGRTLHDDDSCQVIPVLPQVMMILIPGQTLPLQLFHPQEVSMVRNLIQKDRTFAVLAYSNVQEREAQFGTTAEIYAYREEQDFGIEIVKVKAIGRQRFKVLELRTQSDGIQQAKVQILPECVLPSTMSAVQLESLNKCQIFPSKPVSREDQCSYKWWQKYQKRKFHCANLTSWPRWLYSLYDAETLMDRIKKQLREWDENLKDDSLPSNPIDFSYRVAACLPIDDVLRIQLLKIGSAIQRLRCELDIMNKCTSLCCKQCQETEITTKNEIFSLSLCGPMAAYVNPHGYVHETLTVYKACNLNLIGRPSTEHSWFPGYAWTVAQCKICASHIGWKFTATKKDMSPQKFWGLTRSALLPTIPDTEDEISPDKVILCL
- experiment description: Protac activity at cereblon/ERalpha in human MCF7 cells assessed as induction of ERalpha protein degradation by Western blot analysis
- Type: cell-based
measured property: DC50

[[record]]
molecule = "O=C1CCC(N2Cc3cc(N4CCN(CCC5(O)CC(Oc6ccc([C@@H]7c8ccc(O)cc8CC[C@@H]7c7ccccc7)cc6)C5)CC4)cc(OC(F)F)c3C2=O)C(=O)N1 (stereo not given in full)"
measured_property = "DC50"
recorded_measurement = "< 1 nM"

[[record]]
molecule = "COc1cc(N2CCN(CCC3(O)CC(Oc4ccc([C@@H]5c6ccc(O)cc6CC[C@@H]5c5ccccc5)cc4)C3)CC2)cc2c1C(=O)N(C1CCC(=O)NC1=O)C2 (stereo not given in full)"
measured_property = "DC50"
recorded_measurement = "< 1 nM"

[[record]]
molecule = "COc1cc(N2CCN(CCCCCOc3ccc([C@@H]4c5ccc(O)cc5CC[C@@H]4c4ccccc4)cc3)CC2)cc2c1C(=O)N([C@@H]1CCC(=O)NC1=O)C2"
measured_property = "DC50"
recorded_measurement = "< 1 nM"

[[record]]
molecule = "COc1cc(N2CCN(CCCCCOc3ccc([C@@H]4c5ccc(O)cc5CC[C@@H]4c4ccccc4)cc3)CC2)cc2c1C(=O)N(C1CCC(=O)NC1=O)C2 (stereo not given in full)"
measured_property = "DC50"
recorded_measurement = "1 to 10 nM"

[[record]]
molecule = "COc1cc(N2CCN(CC(=O)C3CC(Oc4ccc([C@@H]5c6ccc(O)cc6CC[C@@H]5c5ccccc5)cc4)C3)CC2)cc2c1C(=O)N(C1CCC(=O)NC1=O)C2 (stereo not given in full)"
measured_property = "DC50"
recorded_measurement = "< 1 nM"

